Tested on: Streptococcus pneumoniae
Assay: Minimal inhibitory concentration of compound against Streptococcus pneumoniae UC41
Format: functional
Consider the following compounds; for each one, report its MIC.
Numbers only, in µg/mL.

- structure: "N[C@H]1C(=O)N[C@@H]2Cc3ccc(c(Cl)c3)Oc3cc4cc(c3O)Oc3ccc(cc3Cl)[C@@H](O)[C@@H]3NC(=O)[C@H](NC(=O)[C@@H]4NC(=O)[C@@H](NC2=O)c2cc(O)cc(c2)Oc2cc1ccc2O)c1ccc(O)c(c1)-c1c(O)cc(O)cc1[C@@H](C(=O)O)NC3=O"
  result-unit: "µg/mL"
  MIC: 0.12
- structure: "CC(=O)N[C@@H]1[C@H](O[C@@H]2c3ccc(c(Cl)c3)Oc3cc4cc(c3O)Oc3ccc(cc3Cl)C[C@H]3NC(=O)Cc5ccc(O)c(c5)Oc5cc(O)cc(c5)[C@H](NC3=O)C(=O)N[C@H]4C(=O)N[C@H]3C(=O)N[C@@H]2C(=O)N[C@H](C(=O)O)c2cc(O)cc(O)c2-c2cc3ccc2O)O[C@@H](CO)[C@@H](O)[C@@H]1O"
  result-unit: "µg/mL"
  MIC: 2

Please look at the following compound next.
Please provide the recorded MIC for CC(=O)N[C@@H]1[C@H](O[C@@H]2c3ccc(c(Cl)c3)Oc3cc4cc(c3O)Oc3ccc(cc3Cl)C[C@H]3NC(=O)Cc5ccc(O)c(c5)Oc5cc(O)cc(c5)[C@H](NC3=O)C(=O)N[C@H]4C(=O)N[C@H]3C(=O)N[C@@H]2C(=O)N[C@H](C(=O)O)c2cc(O)cc(O[C@H]4O[C@H](CO)[C@@H](O)[C@@H](O)[C@@H]4O)c2-c2cc3ccc2O)O[C@@H](CO)[C@@H](O)[C@@H]1O , tested on Streptococcus pneumoniae. 4
